Below, each of the molecules is paired with its reported melting point value.

                            chemical_string       measured
0  CC(C)OC(=O)N1CCC(c2nc3ccc(-c4ccc(C(F)F)cc4)cc3o2)CC1  149 to 153 °C

Ask: Name the recorded melting point for CC(C)CC(=O)N1CCC(c2nc3cc(-c4ccc(C(N)=O)c(F)c4)ccc3o2)CC1 .
Reply: 186 to 190 °C

Ask: Bench note: what melting point did CC(C)CC(=O)N1CCC(c2nc3cc(-c4ccc(-n5cnnn5)cc4F)ccc3o2)CC1 show?
Reply: 168 to 172 °C

Ask: Request the reported melting point associated with CS(=O)(=O)N1CCC(c2nc3cc(-c4ccc(-n5cnnn5)cc4F)ccc3o2)CC1
Reply: 209 to 212 °C

Ask: # query: melting point of entry CC(C)OC(=O)N1CCC(c2nc3cc(-c4ccc(C(=O)O)cn4)ccc3o2)CC1
Reply: 239 to 242 °C

Ask: // lookup melting point for CC(C)OC(=O)N1CCC(c2nc3cc(-c4ccc(C(=O)NCCO)c(F)c4)ccc3o2)CC1
Reply: 145 to 147 °C

* * *

- target.system: human GPR119 (Homo sapiens, UniProt Q8TDV5)
- Construct: expressed in transfected cells; host or cells: HEK293 (transient transfection, Lipofectamine 2000)
- Sequence (Q8TDV5 whole entry): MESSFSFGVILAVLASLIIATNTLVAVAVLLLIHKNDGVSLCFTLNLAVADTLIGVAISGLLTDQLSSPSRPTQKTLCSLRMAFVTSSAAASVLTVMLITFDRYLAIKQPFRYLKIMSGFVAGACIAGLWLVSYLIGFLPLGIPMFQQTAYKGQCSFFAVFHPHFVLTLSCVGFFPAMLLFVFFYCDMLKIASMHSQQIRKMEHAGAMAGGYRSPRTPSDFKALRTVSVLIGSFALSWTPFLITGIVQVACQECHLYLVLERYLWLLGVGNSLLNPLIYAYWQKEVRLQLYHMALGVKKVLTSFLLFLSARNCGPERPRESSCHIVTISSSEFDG
- procedure.text: In vitro cyclic AMP assay (Cisbio HTRF) in HEK293 cells transfected with human GPR119
- Assay type: cell-based
- condition.parameters: 1 h, % Induction @ 10 μM, cAMP, Table I
Response key: true (1) means activation at 10 µM >= 50%; false (0) means activation at 10 µM < 50%.

Would you please look over these solved cases?
In [3]: df
Out[3]:
                            chemical_string   category
0  CC(C)OC(=O)N1CCC(c2nc3cc(-c4ccc(C(=O)NCCO)c(F)c4)ccc3o2)CC1   true (1)
1  CC(C)OC(=O)N1CCC(c2nc3cc(-c4ccc(C(=O)NC5CC5)c(F)c4)ccc3o2)CC1  false (0)
2  CC(C)(C)OC(=O)N1CCC(c2nc3cc(-c4ccc(C#N)cc4)ccc3o2)CC1  false (0)

Ask: Given CC(C)NC(=O)c1ccc(-c2ccc3oc(C4CCN(C(=O)OC(C)C)CC4)nc3c2)cc1F , state whether its activation at 10 µM is at least 50%.
Reply: true (1)

Ask: Is it the case that CC(C)(C)OC(=O)N1CCC(c2nc3cc(-c4ccc(-n5cnnn5)cc4F)ccc3o2)CC1 has activation at 10 µM reaching or exceeding 50%?
Reply: true (1)

Ask: Evaluate CC(C)(C)OC(=O)N1CC=C(c2cc3cc(-c4ccc(C(N)=O)c(F)c4)ccc3o2)CC1 : activation at 10 µM at minimum 50%?
Reply: true (1)

Ask: Is activation at 10 µM at least 50%? Consider CC(C)OC(=O)N1CCC(c2nc3cc(-c4ccc(C(N)=O)c(F)c4)ccc3o2)CC1
Reply: true (1)

Ask: Hello, I need to know if CC(C)(C)OC(=O)N1CCC(c2nc3cc(-c4ccc(-n5cnnn5)c(F)c4)ccc3o2)CC1 has measured activation at 10 µM not below 50%. Thanks!
Reply: true (1)

* * *

- target.system: human GPR119 (Homo sapiens)
- Construct: expressed in transfected cells; host or cells: HEK293 (transient transfection, Lipofectamine 2000)
- procedure.text: In vitro cyclic AMP assay (Cisbio HTRF) in HEK293 cells transfected with human GPR119
- Assay type: cell-based
- condition.parameters: cAMP, Table I, Emax varies between 65 to 80%
pEC50: −log10 of the molar value.
result.type: pEC50

>>> df
                                   molecule  result_type      measured
0  CC(C)C(=O)N1CCC(c2nc3cc(-c4ccc(-n5cnnn5)cc4F)ccc3o2)CC1 [EXAMPLE-32]        pEC50  7.00 to 7.30

Let us examine a further case.
Ask: Notebook: pull reported pEC50 for human GPR119 (Homo sapiens), entry CNC(=O)c1ccc(-c2ccc3oc(C4CCN(C(=O)OC(C)C)CC4)nc3c2)cc1F [EXAMPLE-42]
Reply: 7.30 to 7.60
